- Test system: A. baumannii
- test protocol: Conjugate penetration into bacterial cells, flow cytometry
- Assay type: cell-based, Acinetobacter baumannii
- run conditions: 1 µM conjugate in LB medium, 1 h at 37°C, 3'-fluorescein label, mean ± SD from four independent experiments
outcome measure: Level of penetration, %, A. baumannii

The examples below pair each entry with its known result.
5’-Pept2-d(CAAGCAGCxCxTxAxCxCxC)–Flu-3’ [5'-Pept2-pgd-inh3-Flu, 5’-Pept2 conjugate of pgd-inh3 with 3’-fluorescein]    6,5±0,5%
5’-Pept3-d(CAAGCAGCxCxTxAxCxCxC)–Flu-3’ [5'-Pept3-pgd-inh3-Flu, 5’-Pept3 conjugate of pgd-inh3 with 3’-fluorescein]    1,7±0,3%
5’-Pept4-d(CAAGCAGCxCxTxAxCxCxC)–Flu-3’ [5'-Pept4-pgd-inh3-Flu, 5’-Pept4 conjugate of pgd-inh3 with 3’-fluorescein]    2,0±0,3%

Request: Name the recorded Level of penetration, %, A. baumannii of the substance listed here: 5’-Pept1-d(CAAGCAGCxCxTxAxCxCxC)–Flu-3’ [5'-Pept1-pgd-inh3-Flu, 5’-Pept1 conjugate of pgd-inh3 with 3’-fluorescein]
Response: 1,8±0,2%
